MEASUREMENT_PROTOCOL: differential killing of epithelial or mesenchymal cells, primary screen, imaging, PC-3E GFP, TEM4-18 mCherry, co-culture (AID 1345086);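 further: cells exposed to compound for 72 h before imaging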
CONDITION_DETAILS: imaging cell counts, measured here: mesenchymal TEM4-18 mCherry cell survival, at 1 µM
Quick rule: normalised cell number of at least 0.9 means true (1), below that means false (0).

Use these answered entries as a reference point.
1. NC[C@@H]1CC[C@@H](N)[C@@H](O[C@H]2[C@H](O)[C@@H](O[C@H]3O[C@H](CO)[C@@H](O)[C@H](N)[C@H]3O)[C@H](N)C[C@@H]2N)O1 ... true (1)
2. COc1cc(-c2coc3cc(OCc4ccccc4)c(OC)c(O)c3c2=O)cc(OCc2ccccc2)c1OC ... false (0)
3. OCc1ccccc1O[C@@H]1O[C@H](CO)[C@@H](O)[C@H](O)[C@H]1O ... false (0)
4. CC(C)(C)c1ccc(C(O)CCCN2CCC(C(O)(c3ccccc3)c3ccccc3)CC2)cc1 (stereo not given) ... true (1)
5. CC(S)C(=O)NCC(=O)O (stereo not given) ... true (1)
6. O=S(=O)(O)c1cc(I)c(O)c2ncccc12 ... true (1)
7. COc1ccc(C(C)=O)c(O)c1 ... true (1)

With those in mind, consider the next compound.
Ask: Is it the case that "CC(=O)Oc1ccccc1C(=O)Oc1ccccc1C(=O)O" has normalised cell number reaching or exceeding 0.9?
Reply: true (1)

---

MEASUREMENT_PROTOCOL: survival rescue of mitochondrial mutant cells in low glucose, primary screen, MELAS cybrids, Rieske KO mouse fibroblasts, CellTiter-Glo (AID 1508586);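 further: z relative to plate mean and SD of compound and empty wells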
CONDITION_DETAILS: MELAS cybrid survival, CellTiter-Glo 48 h
The source made the active and inactive calls.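 Rule for the calls: active = mean z-score across replicates of 1.96 or higher in either the MELAS or the Rieske mutant cell line; inactive = the rest.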
Permitted responses: Yes for active, No for inactive

1) Cc1cccn2c(=O)c(-c3nnn[nH]3)cnc12 ... No
2) C[C@@H]1C(=O)O[C@H]2C[C@@]34[C@H]5C[C@@H](C(C)(C)C)[C@]36[C@@H](OC(=O)[C@@H]6O)O[C@@]4(C(=O)O5)[C@]21O ... No
3) CCN(CC)C(=O)c1ccc(O)c(OC)c1 ... No
4) CN1C(=O)OC(C)(C)C1=O ... No
5) O=c1c2ccccc2oc2ccccc12 ... No
6) NC1=NCC2c3ccccc3Cc3ccccc3N12 (configuration not stated) ... No
7) O=C(O)c1cccc(-c2noc(-c3ccccc3F)n2)c1 ... No
8) Cc1ccc(Nc2c(F)cccc2Cl)c(CC(=O)O)c1 ... No
9) NC(=O)Cc1cccc(C(=O)c2ccccc2)c1N ... No
10) O=C(CCc1ccc(O)cc1)c1c(O)cc(O)cc1O[C@@H]1O[C@H](CO)[C@@H](O)[C@H](O)[C@H]1O ... No

Ask: Hi, do you know how "C[N+](C)(C)CCOC(=O)CCC(=O)OCC[N+](C)(C)C" came out in this test?
Reply: No

Ask: Hi, do you know how "O=C1NCCN1CCN1CCC(c2cn(-c3ccc(F)cc3)c3ccc(Cl)cc23)CC1" came out in this test?
Reply: No

Ask: Hi, do you know how CN1CCCC(CC2c3ccccc3Sc3ccccc32)C1 (configuration not stated) came out in this test?
Reply: No

Ask: Hi, do you know how O=C(Nc1ccccc1)OCC(CN1CCCCC1)OC(=O)Nc1ccccc1 (configuration not stated) came out in this test?
Reply: No

Ask: Hi, do you know how "CC(C)n1c(/C=C/[C@@H](O)C[C@@H](O)CC(=O)O)c(-c2ccc(F)cc2)c2ccccc21" came out in this test?
Reply: No

Ask: Hi, do you know how "CCn1c(=O)c2c(nc(C=Cc3ccc(OC)c(OC)c3)n2C)n(CC)c1=O" came out in this test?
Reply: No

Ask: Hi, do you know how "Cc1cc2c(cc1S(N)(=O)=O)S(=O)(=O)CCC2" came out in this test?
Reply: No

Numbers sourced from PubChem BioAssay.
